Target: ACAT (Mus musculus)
Construct: endogenous in cells
Sequence (Q61263 whole entry): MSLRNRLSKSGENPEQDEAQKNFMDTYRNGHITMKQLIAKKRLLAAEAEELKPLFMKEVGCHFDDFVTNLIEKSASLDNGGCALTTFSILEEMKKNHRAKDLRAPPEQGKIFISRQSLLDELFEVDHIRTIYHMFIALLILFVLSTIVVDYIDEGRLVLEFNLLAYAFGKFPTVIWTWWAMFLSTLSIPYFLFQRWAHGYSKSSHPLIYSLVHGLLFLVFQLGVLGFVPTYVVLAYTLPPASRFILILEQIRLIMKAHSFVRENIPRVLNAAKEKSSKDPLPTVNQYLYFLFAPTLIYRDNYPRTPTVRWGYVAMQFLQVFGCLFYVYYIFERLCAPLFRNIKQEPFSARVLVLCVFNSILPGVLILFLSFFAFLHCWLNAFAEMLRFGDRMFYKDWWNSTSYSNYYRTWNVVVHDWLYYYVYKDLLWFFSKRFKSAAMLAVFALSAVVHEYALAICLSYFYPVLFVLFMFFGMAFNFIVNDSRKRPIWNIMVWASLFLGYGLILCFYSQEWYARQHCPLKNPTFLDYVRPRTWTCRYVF
Test: Inhibition of cholesterol esterification in the murine macrophage-like cell line J774.A1
Conditions: J774.A1 cells, ac-LDL loaded, 14C-oleic acid pulse
pIC50: −log10 of the molar value.
Everything with pIC50 lower than 6 is not fulfilled; everything else, including exactly 6, is fulfilled.

[[record]]
compound_structure = "CC(C)NC(=O)N(CCN(C)CCSc1nc(-c2ccccc2)c(-c2ccccc2)[nH]1)CCN1CCOCC1"
assay_target = "ACAT (Mus musculus)"
classification = "not fulfilled"

[[record]]
compound_structure = "CCOCCOCCN(CCCCCSc1nc(-c2ccccc2)c(-c2ccccc2)[nH]1)C(=O)NC(C)C"
assay_target = "ACAT (Mus musculus)"
classification = "not fulfilled"

[[record]]
compound_structure = "CCN(CC)CCN(CCCCCSc1nc(-c2ccccc2)c(-c2ccccc2)[nH]1)C(=O)Nc1ccc(F)cc1F"
assay_target = "ACAT (Mus musculus)"
classification = "not fulfilled"

[[record]]
compound_structure = "CCCCCCCN(CCOCCSc1nc(-c2ccc(OC)cc2)c(-c2ccc(OC)cc2)[nH]1)C(=O)Nc1ccc(F)cc1F"
assay_target = "ACAT (Mus musculus)"
classification = "fulfilled"

[[record]]
compound_structure = "CCCCOCCN(CCCCCSc1nc(-c2ccccc2)c(-c2ccccc2)[nH]1)C(=O)Nc1ccc(F)cc1F"
assay_target = "ACAT (Mus musculus)"
classification = "not fulfilled"

[[record]]
compound_structure = "CN(CCSc1nc(-c2ccccc2)c(-c2ccccc2)[nH]1)CCN(CCN1CCOCC1)C(=O)Nc1ccc(F)cc1F"
assay_target = "ACAT (Mus musculus)"
classification = "not fulfilled"

[[record]]
compound_structure = "COCCOCCN(CCCCCSc1nc(-c2ccc(OC)cc2)c(-c2ccc(OC)cc2)[nH]1)C(=O)Nc1ccc(F)cc1F"
assay_target = "ACAT (Mus musculus)"
classification = "fulfilled"

[[record]]
compound_structure = "CCCN(CCOC(=O)CSc1nc(-c2ccccc2)c(-c2ccccc2)[nH]1)C(=O)Nc1ccc(F)cc1F"
assay_target = "ACAT (Mus musculus)"
classification = "not fulfilled"

[[record]]
compound_structure = "CC(C)NC(=O)N(CCCCCSc1nc(-c2ccccc2)c(-c2ccccc2)[nH]1)CCOCCO"
assay_target = "ACAT (Mus musculus)"
classification = "not fulfilled"

[[record]]
compound_structure = "CCOCCOCCN(CCCCCSc1nc(-c2ccc(SC)cc2)c(-c2ccc(SC)cc2)[nH]1)C(=O)NC(C)C"
assay_target = "ACAT (Mus musculus)"
classification = "fulfilled"

[[record]]
compound_structure = "CCCCN(C)CCN(CCOCCSc1nc(-c2ccc(OC)cc2)c(-c2ccc(OC)cc2)[nH]1)C(=O)Nc1ccc(F)cc1F"
assay_target = "ACAT (Mus musculus)"
classification = "fulfilled"

[[record]]
compound_structure = "CCN(CC)CCN(CCCCCSc1nc(-c2ccccc2)c(-c2ccccc2)[nH]1)C(=O)NC(C)C"
assay_target = "ACAT (Mus musculus)"
classification = "fulfilled"

[[record]]
compound_structure = "CCCCCCCN(CCN(C)CCSc1nc(-c2ccccc2)c(-c2ccccc2)[nH]1)C(=O)NC(C)C"
assay_target = "ACAT (Mus musculus)"
classification = "not fulfilled"

[[record]]
compound_structure = "COCCOCCN(CCCCCSc1nc(-c2ccc(OC)cc2)c(-c2ccc(OC)cc2)[nH]1)C(=O)NC(C)C"
assay_target = "ACAT (Mus musculus)"
classification = "fulfilled"

[[record]]
compound_structure = "CCOCCOCCN(CCCCCSc1nc(-c2ccccc2)c(-c2ccccc2)[nH]1)C(=O)Nc1ccc(F)cc1F"
assay_target = "ACAT (Mus musculus)"
classification = "not fulfilled"

